Parameter IC50, tested on HDAC1 (Homo sapiens), listed per item.
Sequence (Q13547 whole entry): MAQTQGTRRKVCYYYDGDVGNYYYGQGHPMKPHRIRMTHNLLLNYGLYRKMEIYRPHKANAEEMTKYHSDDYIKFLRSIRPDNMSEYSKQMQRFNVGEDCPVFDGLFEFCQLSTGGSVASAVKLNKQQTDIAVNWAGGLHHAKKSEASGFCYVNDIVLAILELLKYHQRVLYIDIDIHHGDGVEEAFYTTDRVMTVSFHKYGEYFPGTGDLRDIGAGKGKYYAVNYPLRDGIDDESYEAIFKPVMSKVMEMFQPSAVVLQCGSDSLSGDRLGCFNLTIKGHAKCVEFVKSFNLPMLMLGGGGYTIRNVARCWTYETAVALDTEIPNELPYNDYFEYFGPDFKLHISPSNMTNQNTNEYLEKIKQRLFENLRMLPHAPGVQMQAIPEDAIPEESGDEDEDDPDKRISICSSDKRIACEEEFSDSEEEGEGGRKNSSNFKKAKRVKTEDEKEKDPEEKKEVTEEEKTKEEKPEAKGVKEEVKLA

Smiles Entry: Nc1ccc(-c2cccs2)cc1NC(=O)c1ccc(OC[C@H](O)CO)cn1
Readout Type: IC50
Observed Measurement: 1 to 10 nM
--
Smiles Entry: Nc1ccc(-c2ccccc2)cc1NC(=O)c1ncc(NCCOCc2cccnc2)cn1
Readout Type: IC50
Observed Measurement: 1 to 10 nM
--
Smiles Entry: Nc1ccc(-c2ccoc2)cc1NC(=O)c1ncc(N2CCNCC2)cn1
Readout Type: IC50
Observed Measurement: 10 to 20 nM

Reported IC50 of CC(=O)N1CCN(c2ccc(C(=O)Nc3cc(-c4cccs4)ccc3N)nc2)CC1 : 1 to 10 nM
